The values you see were collected from paper PMC4686794.

target: TATA-binding protein (TBP) (Homo sapiens, UniProt P20226 1-339); experiment: EMSA (kinetic, kd/ka); 5 mM Mg2+; ka 2.3e3 M-1s-1, kd 1.8e-4 s-1; 20 mM HEPES-KOH pH 7.6, 5 mM MgCl2, 70 mM KCl, 1 mM DTT, 100 ug/mL BSA, 0.01% NP-40, 5% glycerol, 25 C; 0.3 nM active TBP, ODN 10-60 nM; conditions: protein: recombinant; label: 32P on both strands; blunt
Sequence (P20226 whole entry): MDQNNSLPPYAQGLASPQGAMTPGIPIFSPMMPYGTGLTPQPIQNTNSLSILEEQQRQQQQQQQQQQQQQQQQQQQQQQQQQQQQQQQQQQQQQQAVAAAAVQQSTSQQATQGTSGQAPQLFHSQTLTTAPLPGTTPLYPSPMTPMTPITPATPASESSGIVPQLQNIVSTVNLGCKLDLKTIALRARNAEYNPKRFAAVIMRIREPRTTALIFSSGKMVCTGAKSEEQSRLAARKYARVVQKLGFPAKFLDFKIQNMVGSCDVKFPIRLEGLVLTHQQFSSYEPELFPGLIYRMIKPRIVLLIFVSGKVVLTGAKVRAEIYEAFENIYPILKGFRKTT
readout_kind: Kd (nM)
Number only, in nM; omit the unit.

# input Read off the recorded Kd for LEP WT (dsDNA) DNA 1: ATCGGGCCGCTATAAGAGGGGCGGGC DNA 2: GCCCGCCCCTCTTATAGCGGCCCGAT
# output 78
